# conditions_used: 337.4 K; 101.33 kPa; Liquid; Pulse-echo method
measured_attribute: speed of sound (m/s)

CCCC(=O)[O-].C[NH2+]CCO [N-methyl-2-hydroxyethylammonium butanoate]
1491.5
CCC(=O)[O-].C[NH2+]CCO [2-hydroxy-N-methylethanaminium propionate]
1572.9
CC(C)C(=O)[O-].C[NH2+]CCO [2-hydroxy-N-methylethanaminium isobutyrate]
1499.7
CCCCC(=O)[O-].C[NH2+]CCO [2-hydroxy-N-methylethanaminium pentanoate]
1427.8
C[NH2+]CCO.O=C[O-] [2-hydroxy-N-methylethanaminium formate]
1739.8

----------
# conditions_used: 289.15 K; 101.33 kPa; Liquid; Vibrating tube method
measured_attribute: mass density (kg/m3)

C[NH2+]CCO.O=C[O-] [2-hydroxy-N-methylethanaminium formate]
1133.28
CC(C)C(=O)[O-].C[NH2+]CCO [2-hydroxy-N-methylethanaminium isobutyrate]
1049.03
CC(=O)[O-].C[NH2+]CCO [N-methyl-2-hydroxyethylammonium acetate]
1106.19
CCCC(=O)[O-].C[NH2+]CCO [N-methyl-2-hydroxyethylammonium butanoate]
1045.34
CCC(=O)[O-].C[NH2+]CCO [2-hydroxy-N-methylethanaminium propionate]
1077.13
CCCCC(=O)[O-].C[NH2+]CCO [2-hydroxy-N-methylethanaminium pentanoate]
1022.31

----------
# conditions_used: 297.9 K; 101.33 kPa; Liquid; Pulse-echo method
measured_attribute: speed of sound (m/s)

CCC(=O)[O-].C[NH2+]CCO [2-hydroxy-N-methylethanaminium propionate]
1690.7
CCCC(=O)[O-].C[NH2+]CCO [N-methyl-2-hydroxyethylammonium butanoate]
1615.3
CCCCC(=O)[O-].C[NH2+]CCO [2-hydroxy-N-methylethanaminium pentanoate]
1549.6
CC(C)C(=O)[O-].C[NH2+]CCO [2-hydroxy-N-methylethanaminium isobutyrate]
1612
C[NH2+]CCO.O=C[O-] [2-hydroxy-N-methylethanaminium formate]
1815.8

----------
# conditions_used: 284.9 K; 101.33 kPa; Liquid; Vibrating tube method
measured_attribute: mass density (kg/m3)

C[NH2+]CCO.O=C[O-] [2-hydroxy-N-methylethanaminium formate]
1135.65
CCC(=O)[O-].C[NH2+]CCO [2-hydroxy-N-methylethanaminium propionate]
1079.91
CC(C)C(=O)[O-].C[NH2+]CCO [2-hydroxy-N-methylethanaminium isobutyrate]
1051.79
CC(=O)[O-].C[NH2+]CCO [N-methyl-2-hydroxyethylammonium acetate]
1108.77
CCCC(=O)[O-].C[NH2+]CCO [N-methyl-2-hydroxyethylammonium butanoate]
1048.18
CCCCC(=O)[O-].C[NH2+]CCO [2-hydroxy-N-methylethanaminium pentanoate]
1025.17

----------
# conditions_used: 283.4 K; 101.33 kPa; Liquid; Pulse-echo method
measured_attribute: speed of sound (m/s)

CCC(=O)[O-].C[NH2+]CCO [2-hydroxy-N-methylethanaminium propionate]
1735
C[NH2+]CCO.O=C[O-] [2-hydroxy-N-methylethanaminium formate]
1844.3
CCCC(=O)[O-].C[NH2+]CCO [N-methyl-2-hydroxyethylammonium butanoate]
1663.8
CCCCC(=O)[O-].C[NH2+]CCO [2-hydroxy-N-methylethanaminium pentanoate]
1597.5
CC(C)C(=O)[O-].C[NH2+]CCO [2-hydroxy-N-methylethanaminium isobutyrate]
1653.9

----------
# conditions_used: 317.91 K; 101.33 kPa; Liquid; Pulse-echo method
measured_attribute: speed of sound (m/s)

CCC(=O)[O-].C[NH2+]CCO [2-hydroxy-N-methylethanaminium propionate]
1631.7
CCCC(=O)[O-].C[NH2+]CCO [N-methyl-2-hydroxyethylammonium butanoate]
1552.6
C[NH2+]CCO.O=C[O-] [2-hydroxy-N-methylethanaminium formate]
1776.8
CC(C)C(=O)[O-].C[NH2+]CCO [2-hydroxy-N-methylethanaminium isobutyrate]
1555.5
CCCCC(=O)[O-].C[NH2+]CCO [2-hydroxy-N-methylethanaminium pentanoate]
1487.6

----------
# conditions_used: 278.15 K; 101.33 kPa; Liquid; Pulse-echo method
measured_attribute: speed of sound (m/s)

C[NH2+]CCO.O=C[O-] [2-hydroxy-N-methylethanaminium formate]
1854.7
CCCCC(=O)[O-].C[NH2+]CCO [2-hydroxy-N-methylethanaminium pentanoate]
1616.6
CCC(=O)[O-].C[NH2+]CCO [2-hydroxy-N-methylethanaminium propionate]
1752.4
CCCC(=O)[O-].C[NH2+]CCO [N-methyl-2-hydroxyethylammonium butanoate]
1683.5
CC(C)C(=O)[O-].C[NH2+]CCO [2-hydroxy-N-methylethanaminium isobutyrate]
1670.2

----------
# conditions_used: 326.16 K; 101.33 kPa; Liquid; Vibrating tube method
measured_attribute: mass density (kg/m3)

CCC(=O)[O-].C[NH2+]CCO [2-hydroxy-N-methylethanaminium propionate]
1052.79
CCCCC(=O)[O-].C[NH2+]CCO [2-hydroxy-N-methylethanaminium pentanoate]
997.148
CC(=O)[O-].C[NH2+]CCO [N-methyl-2-hydroxyethylammonium acetate]
1083.75
CCCC(=O)[O-].C[NH2+]CCO [N-methyl-2-hydroxyethylammonium butanoate]
1020.17
C[NH2+]CCO.O=C[O-] [2-hydroxy-N-methylethanaminium formate]
1112.69
CC(C)C(=O)[O-].C[NH2+]CCO [2-hydroxy-N-methylethanaminium isobutyrate]
1025.02

----------
# conditions_used: 315.41 K; 101.33 kPa; Liquid; Pulse-echo method
measured_attribute: speed of sound (m/s)

CC(C)C(=O)[O-].C[NH2+]CCO [2-hydroxy-N-methylethanaminium isobutyrate]
1562.6
CCC(=O)[O-].C[NH2+]CCO [2-hydroxy-N-methylethanaminium propionate]
1639
CCCCC(=O)[O-].C[NH2+]CCO [2-hydroxy-N-methylethanaminium pentanoate]
1495.3
CCCC(=O)[O-].C[NH2+]CCO [N-methyl-2-hydroxyethylammonium butanoate]
1560.5
C[NH2+]CCO.O=C[O-] [2-hydroxy-N-methylethanaminium formate]
1781.7

----------
# conditions_used: 319.91 K; 101.33 kPa; Liquid; Vibrating tube method
measured_attribute: mass density (kg/m3)

CCCCC(=O)[O-].C[NH2+]CCO [2-hydroxy-N-methylethanaminium pentanoate]
1001.49
CCC(=O)[O-].C[NH2+]CCO [2-hydroxy-N-methylethanaminium propionate]
1057
CCCC(=O)[O-].C[NH2+]CCO [N-methyl-2-hydroxyethylammonium butanoate]
1024.51
CC(C)C(=O)[O-].C[NH2+]CCO [2-hydroxy-N-methylethanaminium isobutyrate]
1029.2
C[NH2+]CCO.O=C[O-] [2-hydroxy-N-methylethanaminium formate]
1116.13
CC(=O)[O-].C[NH2+]CCO [N-methyl-2-hydroxyethylammonium acetate]
1087.64

----------
# conditions_used: 308.65 K; 101.33 kPa; Liquid; Vibrating tube method
measured_attribute: mass density (kg/m3)

CC(=O)[O-].C[NH2+]CCO [N-methyl-2-hydroxyethylammonium acetate]
1094.52
CCCC(=O)[O-].C[NH2+]CCO [N-methyl-2-hydroxyethylammonium butanoate]
1032.2
CC(C)C(=O)[O-].C[NH2+]CCO [2-hydroxy-N-methylethanaminium isobutyrate]
1036.6
C[NH2+]CCO.O=C[O-] [2-hydroxy-N-methylethanaminium formate]
1122.39
CCC(=O)[O-].C[NH2+]CCO [2-hydroxy-N-methylethanaminium propionate]
1064.46
CCCCC(=O)[O-].C[NH2+]CCO [2-hydroxy-N-methylethanaminium pentanoate]
1009.18

----------
# conditions_used: 303.9 K; 101.33 kPa; Liquid; Pulse-echo method
measured_attribute: speed of sound (m/s)

C[NH2+]CCO.O=C[O-] [2-hydroxy-N-methylethanaminium formate]
1804.1
CC(C)C(=O)[O-].C[NH2+]CCO [2-hydroxy-N-methylethanaminium isobutyrate]
1595
CCC(=O)[O-].C[NH2+]CCO [2-hydroxy-N-methylethanaminium propionate]
1673
CCCCC(=O)[O-].C[NH2+]CCO [2-hydroxy-N-methylethanaminium pentanoate]
1530.7
CCCC(=O)[O-].C[NH2+]CCO [N-methyl-2-hydroxyethylammonium butanoate]
1596.3

----------
# conditions_used: 281.15 K; 101.33 kPa; Liquid; Vibrating tube method
measured_attribute: mass density (kg/m3)

CCC(=O)[O-].C[NH2+]CCO [2-hydroxy-N-methylethanaminium propionate]
1082.34
CCCC(=O)[O-].C[NH2+]CCO [N-methyl-2-hydroxyethylammonium butanoate]
1050.71
CC(C)C(=O)[O-].C[NH2+]CCO [2-hydroxy-N-methylethanaminium isobutyrate]
1054.2
CC(=O)[O-].C[NH2+]CCO [N-methyl-2-hydroxyethylammonium acetate]
1111.03
C[NH2+]CCO.O=C[O-] [2-hydroxy-N-methylethanaminium formate]
1137.73
CCCCC(=O)[O-].C[NH2+]CCO [2-hydroxy-N-methylethanaminium pentanoate]
1027.68

----------
# conditions_used: 306.65 K; 101.33 kPa; Liquid; Pulse-echo method
measured_attribute: speed of sound (m/s)

C[NH2+]CCO.O=C[O-] [2-hydroxy-N-methylethanaminium formate]
1798.8
CCC(=O)[O-].C[NH2+]CCO [2-hydroxy-N-methylethanaminium propionate]
1664.9
CCCCC(=O)[O-].C[NH2+]CCO [2-hydroxy-N-methylethanaminium pentanoate]
1522.2
CC(C)C(=O)[O-].C[NH2+]CCO [2-hydroxy-N-methylethanaminium isobutyrate]
1587.3
CCCC(=O)[O-].C[NH2+]CCO [N-methyl-2-hydroxyethylammonium butanoate]
1587.7
